- TEST TARGET: T1, IGFBP-1 (UniProt P08833 26-259)
- T1 construct: in kinetics immobilised on a CM chip by EDC/NHS; biotinylated in the phage selection
- T1 sequence (looked up): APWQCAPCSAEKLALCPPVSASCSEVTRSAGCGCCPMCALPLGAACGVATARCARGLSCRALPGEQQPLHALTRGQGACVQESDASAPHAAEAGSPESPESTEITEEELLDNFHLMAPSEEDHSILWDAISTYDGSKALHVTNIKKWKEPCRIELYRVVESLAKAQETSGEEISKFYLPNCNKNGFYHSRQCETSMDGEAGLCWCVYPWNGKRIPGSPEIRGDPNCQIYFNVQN
- ASSAY REMARKS: ELISA inhibition of IGFBP-1 binding to IGF-I
Positions of bridges follow the written chain, without caps; N, C: chain ends. Non-standard residues stand in square brackets, D forms with d. No end group written: not given here. Nle = CCCC[C@H](N)C(=O)O
OBSERVATION TYPE: Fold potency reduction IC50(mut)/IC50(bp1-16)
Answer shape: numeric part, then the unit.

Consider the following illustrative entries.
{"BINDER": "CRAGRLQWLCEKYF (disulfide 1-10, also called P5R variant of bp1-16) [bp1-31]", "OBSERVED RESULT": "2 fold"}
{"BINDER": "CRAGP[Nle]QWLCEKYF (disulfide 1-10, also called L6(Nle) variant of bp1-16) [bp1-36]", "OBSERVED RESULT": "6.9 fold"}
{"BINDER": "CRAAPLQWLCEKYF (disulfide 1-10, also called G4A variant of bp1-16) [bp1-29]", "OBSERVED RESULT": "50 fold"}
{"BINDER": "CRAGPLQHLCEKYF (disulfide 1-10, also called W8H variant of bp1-16) [bp1-24]", "OBSERVED RESULT": "7.5 fold"}

Sample CRAGPLQW[Nle]CEKYF (disulfide 1-10, also called L9(Nle) variant of bp1-16) [bp1-37] ; Fold potency reduction IC50(mut)/IC50(bp1-16) observed: 1.7 fold
